Tested on: Pseudomonas aeruginosa
Assay: Antibacterial activity against wild-type Pseudomonas aeruginosa PAO1 after 24 hrs by CLSI broth microdilution method
Type: functional
Conditions: PAO1, 24 h
Catalogue of MIC values

Solved cases (3 shown):
MOLECULE: CCCCc1ccc(-c2ccc(C(=O)N(C)[C@H](CO)C(=O)N[C@H](C)C(=O)NCC(=O)N(C)[C@@H]3C(=O)N[C@@H](C)C(=O)N[C@H](C(=O)O)Cc4ccc(O)c(c4)-c4cc3ccc4O)cc2)cc1
OBSERVED_PROPERTY: MIC
ENDPOINT_RESULT: > 64 µg/mL
--
MOLECULE: C[C@@H]1NC(=O)[C@@H](N(C)C(=O)CNC(=O)[C@@H](C)NC(=O)[C@@H](CO)N(C)C(=O)Cc2ccc(-c3ccccc3)cc2)c2ccc(O)c(c2)-c2cc(ccc2O)C[C@@H](C(=O)O)NC1=O
OBSERVED_PROPERTY: MIC
ENDPOINT_RESULT: > 64 µg/mL
--
MOLECULE: CCCCCCCCCCCCCCCC(=O)N(C)[C@@H](CO)C(=O)NCC(C)C(=O)NCC(=O)N(C)[C@@H]1C(=O)N[C@@H](C)C(=O)N[C@H](C(=O)O)Cc2ccc(O)c(c2)-c2cc1ccc2O (mixture of isomers)
OBSERVED_PROPERTY: MIC
ENDPOINT_RESULT: > 64 µg/mL

Enter reported MIC observed with Pseudomonas aeruginosa for "CCCCCCCCCCCCCCCC(=O)N(C)[C@H](CO)C(=O)N[C@H](C)C(=O)NCC(=O)N(C)[C@@H]1C(=O)N[C@@H](C)C(=O)N[C@H](C(=O)O)Cc2ccc(O)c(c2)-c2cc1ccc2O" > 64 µg/mL

Please state recorded MIC (tested on Pseudomonas aeruginosa) of "C[C@@H]1NC(=O)[C@@H](N(C)C(=O)CNC(=O)[C@@H](C)NC(=O)[C@@H](CO)N(C)C(=O)Cc2ccc3ccccc3c2)c2ccc(O)c(c2)-c2cc(ccc2O)C[C@@H](C(=O)O)NC1=O" > 64 µg/mL

---

Tested on: Pseudomonas aeruginosa
Test: Antibacterial activity against wild-type Pseudomonas aeruginosa PAO1 after 24 hrs by CLSI broth microdilution method
Assay type: functional
Settings: PAO1, 24 h
OBSERVED_PROPERTY: MIC

Below, each entry is followed by its recorded MIC result.
COMPOUND: CCCCCCc1ccc(C(=O)N(C)[C@H](CO)C(=O)N[C@H](C)C(=O)NCC(=O)N(C)[C@@H]2C(=O)N[C@@H](C)C(=O)N[C@H](C(=O)O)Cc3ccc(O)c(c3)-c3cc2ccc3O)cc1
OBSERVED_PROPERTY: MIC
ENDPOINT_RESULT: > 64 µg/mL

COMPOUND: CCCCCCCCCCCC(=O)N(C)[C@H](CO)C(=O)N[C@H](C)C(=O)NCC(=O)N(C)[C@@H]1C(=O)N[C@@H](C)C(=O)N[C@H](C(=O)O)Cc2ccc(O)c(c2)-c2cc1ccc2O
OBSERVED_PROPERTY: MIC
ENDPOINT_RESULT: > 64 µg/mL

Entry CCCCCCCCCCCCCCC(C)C(=O)N[C@@H](C)C(=O)NCC(=O)N(C)[C@@H]1C(=O)N[C@@H](C)C(=O)N[C@H](C(=O)O)Cc2ccc(O)c(c2)-c2cc1ccc2O (mixture of isomers) : reported MIC = ? > 64 µg/mL

---

System: Escherichia coli
Experiment: Antibacterial activity against Escherichia coli MG1655 harboring lepB P84L mutant after 24 hrs by CLSI broth microdilution method
Format: functional
Conditions: MG1655, 24 h
Lab note: compare MIC with 4 µg/mL, writing Satisfied if less and Not satisfied if equal or more.

COMPOUND_STRUCTURE_STRING: CCCCCCCCc1ccc(C(=O)N(C)[C@H](CO)C(=O)N[C@H](C)C(=O)NCC(=O)N(C)[C@@H]2C(=O)N[C@@H](C)C(=O)N[C@H](C(=O)O)Cc3ccc(O)c(c3)-c3cc2ccc3O)cc1
ASSAYED_TARGET: Escherichia coli
LABEL_VALUE: Not satisfied

COMPOUND_STRUCTURE_STRING: CCc1ccc(-c2ccc(C(=O)N(C)[C@H](CO)C(=O)N[C@H](C)C(=O)NCC(=O)N(C)[C@@H]3C(=O)N[C@@H](C)C(=O)N[C@H](C(=O)O)Cc4ccc(O)c(c4)-c4cc3ccc4O)cc2)cc1
ASSAYED_TARGET: Escherichia coli
LABEL_VALUE: Not satisfied

COMPOUND_STRUCTURE_STRING: CCCCCCc1ccc(C(=O)N(C)[C@H](CO)C(=O)N[C@H](C)C(=O)NCC(=O)N(C)[C@@H]2C(=O)N[C@@H](C)C(=O)N[C@H](C(=O)O)Cc3ccc(O)c(c3)-c3cc2ccc3O)cc1
ASSAYED_TARGET: Escherichia coli
LABEL_VALUE: Not satisfied

# check: MIC < 4 µg/mL for "CCCCCCc1ccc(-c2ccc(C(=O)N(C)[C@H](CO)C(=O)N[C@H](C)C(=O)NCC(=O)N(C)[C@@H]3C(=O)N[C@@H](C)C(=O)N[C@H](C(=O)O)Cc4ccc(O)c(c4)-c4cc3ccc4O)cc2)cc1" Satisfied

---

MIC: recorded values
Test system: Pseudomonas aeruginosa
Assay: Antibacterial activity against wild-type Pseudomonas aeruginosa PAO1 after 24 hrs by CLSI broth microdilution method
Format: functional
Settings: PAO1, 24 h

In the examples that follow, each entry is paired with its recorded MIC.
COMPOUND_STRUCTURE_STRING: CCCCCCCCc1ccc(C(=O)N(C)[C@H](CO)C(=O)N[C@H](C)C(=O)NCC(=O)N(C)[C@@H]2C(=O)N[C@@H](C)C(=O)N[C@H](C(=O)O)Cc3ccc(O)c(c3)-c3cc2ccc3O)cc1
MIC: > 64 µg/mL
--
COMPOUND_STRUCTURE_STRING: CCCCCCCCCCc1ccc(C(=O)N(C)[C@H](CO)C(=O)N[C@H](C)C(=O)NCC(=O)N(C)[C@@H]2C(=O)N[C@@H](C)C(=O)N[C@H](C(=O)O)Cc3ccc(O)c(c3)-c3cc2ccc3O)cc1
MIC: > 64 µg/mL
--
COMPOUND_STRUCTURE_STRING: CCCCCCCCCC(=O)N(C)[C@H](CO)C(=O)N[C@H](C)C(=O)NCC(=O)N(C)[C@@H]1C(=O)N[C@@H](C)C(=O)N[C@H](C(=O)O)Cc2ccc(O)c(c2)-c2cc1ccc2O
MIC: > 64 µg/mL
--
COMPOUND_STRUCTURE_STRING: CCCCCCc1ccc(-c2ccc(C(=O)N(C)[C@H](CO)C(=O)N[C@H](C)C(=O)NCC(=O)N(C)[C@@H]3C(=O)N[C@@H](C)C(=O)N[C@H](C(=O)O)Cc4ccc(O)c(c4)-c4cc3ccc4O)cc2)cc1
MIC: > 64 µg/mL

Field: next compound
Quick one: MIC of "CCCCCCCCCCCCCCCC(=O)N1C[C@@H](O)C[C@H]1C(=O)N[C@@H](C)C(=O)NCC(=O)N(C)[C@@H]1C(=O)N[C@@H](C)C(=O)N[C@H](C(=O)O)Cc2ccc(O)c(c2)-c2cc1ccc2O" ? > 64 µg/mL

---

Tested on: Pseudomonas aeruginosa
Assay: Antibacterial activity against Pseudomonas aeruginosa PAO1 harboring lepB P84L mutant after 24 hrs by CLSI broth microdilution method
Type: functional
Conditions: PAO1, 24 h
OBSERVED_PROPERTY: MIC (µg/mL)
Write the value in µg/mL as a bare number.

Recorded MIC, per entry:
MOLECULE: CCCCCCCCCCCCCCCC(=O)N(C)[C@@H](CO)C(=O)NCC(C)C(=O)NCC(=O)N(C)[C@@H]1C(=O)N[C@@H](C)C(=O)N[C@H](C(=O)O)Cc2ccc(O)c(c2)-c2cc1ccc2O (mixture of isomers)
ASSAYED_TARGET: Pseudomonas aeruginosa
MIC [µg/mL]: 16
--
MOLECULE: CCCCCCCCc1ccc(C(=O)N(C)[C@H](CO)C(=O)N[C@H](C)C(=O)NCC(=O)N(C)[C@@H]2C(=O)N[C@@H](C)C(=O)N[C@H](C(=O)O)Cc3ccc(O)c(c3)-c3cc2ccc3O)cc1
ASSAYED_TARGET: Pseudomonas aeruginosa
MIC [µg/mL]: 64
--
MOLECULE: CCCCCCCCCCc1ccc(C(=O)N(C)[C@H](CO)C(=O)N[C@H](C)C(=O)NCC(=O)N(C)[C@@H]2C(=O)N[C@@H](C)C(=O)N[C@H](C(=O)O)Cc3ccc(O)c(c3)-c3cc2ccc3O)cc1
ASSAYED_TARGET: Pseudomonas aeruginosa
MIC [µg/mL]: 16

Which measured MIC value corresponds to "CCCCCCCCCCCCCCCC(=O)N(C)[C@H](CO)C(=O)N[C@H](C)C(=O)NCC(=O)N(C)[C@@H]1C(=O)N[C@@H](C)C(=O)N[C@H](C(=O)O)Cc2ccc(O)c(c2)-c2cc1ccc2O" ? 8
